Test system: RPMI-8226
Experiment: NCI tumour cell line growth inhibition, 48 h
Active and inactive are the calls of the source. No stated cut-off is given here; in the data, active = GI50 up to about 1.1 µM and inactive = higher.

{"columns": ["MOLECULE", "GI50"],
 "data": [
  ["CCOC(=O)/C(=C\\c1cccs1)P(=O)(OCC)OCC", "20.4 µM (inactive)"],
  ["COC1(Cc2ccccc2)C(=O)c2ccccc2N1C(C)=O (stereo not given)", "> 100 µM (inactive)"],
  ["C=C1CCC2CC1[C@@H](C(=O)c1c[nH]c3ccccc13)NC2(C)C (stereo not given in full)", "> 37.5 µM (inactive)"],
  ["CN(C)CCNS(=O)(=O)c1ccc(N)cc1", "> 100 µM (inactive)"],
  ["O=[N+]([O-])c1ccc(Cc2nc3ccccc3s2)cc1", "49.4 µM (inactive)"],
  ["COC(=O)[C@H](Cc1ccccc1)NC(=O)/C(=C/C(C)C)NC(=O)[C@H](CCSC)NC=O", "> 100 µM (inactive)"],
  ["S=C1Nc2cnc3ccccc3c2SC1c1ccccc1 (stereo not given)", "> 100 µM (inactive)"],
  ["COC1=CC2(C=CC1=O)c1cc(OC)c(OC)cc1CCN2C(=O)c1ccccc1 (stereo not given)", "> 100 µM (inactive)"],
  ["CC(=O)N1NC(c2ccccc2)=CC(=O)/C1=C/C(=O)c1ccccc1", "31.3 µM (inactive)"],
  ["O=C(CNC(=O)c1ccccc1)Oc1c(Cl)c(Cl)c(Cl)c(Cl)c1Cl", "38.7 µM (inactive)"],
  ["CC1=C(C(=O)NCCc2ccccc2)CC(C(=O)NCCc2ccccc2)=C(C)N1", "45.7 µM (inactive)"],
  ["Cc1[nH]c2ncn(N)c(=N)c2c1Cc1ccccc1", "> 100 µM (inactive)"],
  ["O=C(CSc1nnc(Cc2ccccc2)o1)Nc1ccc([N+](=O)[O-])cc1", "> 100 µM (inactive)"],
  ["NC(=O)NCCCC(NC(=O)OCCCCCCn1ccc(=O)[nH]c1=O)C(=O)O (stereo not given)", "34.5 µM (inactive)"],
  ["Cc1cn(CCCC2=NCCCN2)c(=O)[nH]c1=O", "79.1 µM (inactive)"]
]}

---

System: CCRF-CEM
Experiment: NCI tumour cell line growth inhibition, 48 h
The source made the active and inactive calls. No stated cut-off is given here; in the data, active = GI50 up to about 1.1 µM and inactive = higher.
Recorded GI50 by entry

{"columns": ["MOLECULE", "GI50"],
 "data": [
  ["CCOc1ccc2c(c1)/C(=C(\\C(Cl)=C(Cl)Cl)[N+](=O)[O-])N2", "47.9 µM (inactive)"],
  ["O=c1[nH]nc(Cc2ccc(Cl)cc2)n1/N=C/c1c[nH]c2ccccc12", "> 100 µM (inactive)"],
  ["NC(=S)/N=C(/c1nc2ccc(Cl)cc2nc1O)C(O)c1ccccc1Cl (stereo not given)", "> 100 µM (inactive)"],
  ["CC(=O)OC1=c2ccccc2=C(O)C2C1C=NN2C(C)=O (stereo not given)", "> 100 µM (inactive)"],
  ["FC(F)(F)c1nc(-c2ccccc2)oc1Sc1oc(-c2ccccc2)nc1C(F)(F)F", "> 100 µM (inactive)"]
]}

---

Recorded GI50 by entry
Tested on: 786-0
Assay: NCI tumour cell line growth inhibition, 48 h
The source made the active and inactive calls. Cut-off read from the data, not from the text of the source: active = GI50 up to about 1.1 µM and inactive = higher.
QUANTITY_KIND: GI50

{"columns": ["MOLECULE", "MEASURED"],
 "data": [
  ["CCOC(=O)c1cc2cc3c4c(c2oc1=O)CCCN4CCC3", "40 µM (inactive)"],
  ["CC(=O)O[C@H]1[C@@H](N2CCN(C)CC2)C[C@H]2[C@@H]3CC=C4C[C@@H](N5CCCC5)CC[C@]4(C)[C@H]3CC[C@@]21C", "25.8 µM (inactive)"],
  ["Cc1cc(O)c2c(c1O)C(=O)c1c(O)ccc(O)c1C2=O [Cynodontin]", "82 µM (inactive)"],
  ["O=c1oc2ccccc2cc1-c1cn2ccccc2n1", "3.8 µM (inactive)"],
  ["Cc1cccc2c1c(=O)c1c(O)c3c(cc1n2C)OC(C)(C)C=C3", "> 10 µM (inactive)"],
  ["O=S(=O)(O)c1ccc(NN(c2c(O)ccc3ccccc23)S(=O)(=O)O)cc1", "> 100 µM (inactive)"],
  ["C=Cc1nc(C#N)c(N)o1", "> 100 µM (inactive)"],
  ["OCCCNc1[nH]cnc2nncc1-2", "> 100 µM (inactive)"],
  ["S=C(N/N=C/c1ccccc1)NC12CC3CC(CC(C3)C1)C2", "56.1 µM (inactive)"],
  ["COc1ccc(N2C(=O)C3c4[nH]c5ccccc5c4C4CCC(C(C)C)CC4C3C2=O)cc1 (stereo not drawn)", "> 100 µM (inactive)"],
  ["CC(C)[Si](OC1=C(C(=O)N(C)c2ccccc2Cl)CCCC1)(C(C)C)C(C)C", "17.1 µM (inactive)"],
  ["CC1(C)OC(=O)C(C#N)=C1/C=C/c1coc2ccc(Cl)cc2c1=O", "37.2 µM (inactive)"],
  ["CC(=O)N1NC(c2ccccc2)=CC(=O)/C1=C/C(=O)c1ccccc1", "> 100 µM (inactive)"]
]}

---

System: UACC-257
Test: NCI tumour cell line growth inhibition, 48 h
Activity calls are given as the source filed them. No stated cut-off is given here; in the data, active = GI50 up to about 1.1 µM and inactive = higher.

{"columns": ["COMPOUND", "GI50"],
 "data": [
  ["O=C(O)c1cc(O)nc(S)n1", "> 100 µM (inactive)"],
  ["CN(C(=O)C1CCCCCC1=O)c1ccccc1Cl (centres undefined)", "> 100 µM (inactive)"],
  ["CCOc1cc(/C=C2/C(C)=NN(c3cccc(Cl)c3)/C2=N/c2nc3ccccc3s2)ccc1O", "23.7 µM (inactive)"],
  ["COc1ccc(/C=C2/SC(c3ccc(Cl)cc3)N(NC(=O)CCCCCCCCC(=O)NN3C(=O)/C(=C\\c4ccc(OC)c(OC)c4)SC3c3ccc(Cl)cc3)C2=O)cc1OC (centres undefined)", "54.3 µM (inactive)"],
  ["CCOC(=O)/C=C/n1c2ccccc2c(=O)c2cc(OC)ccc21", "> 100 µM (inactive)"],
  ["Cn1c2ccccc2c(=NNc2cccc(C(=O)O)c2)c2ccccc21", "28.5 µM (inactive)"],
  ["O=C1COCCN1C(=O)c1ccccc1Cl", "> 100 µM (inactive)"],
  ["O=S(=O)(Nc1ccc2ccc3cccc4ccc1c2c34)c1ccccc1", "58.7 µM (inactive)"],
  ["COC(=O)[C@H](Cc1ccccc1)NC(=O)/C(=C/C(C)C)NC(=O)[C@H](CCSC)NC=O", "> 100 µM (inactive)"],
  ["O=C1C2Nc3ccccc3SC2C(=O)N1c1ccccc1C(F)(F)F (centres undefined)", "> 100 µM (inactive)"],
  ["COc1c2ccsc2c(OC)c2ccsc12", "> 100 µM (inactive)"],
  ["Cc1ccc2c(c1)C(c1cccc3ccccc13)OC2=O (centres undefined)", "53.8 µM (inactive)"],
  ["N=C(N)N/N=C(/c1nc2ccc([N+](=O)[O-])cc2[nH]c1=O)C(O)c1ccc([N+](=O)[O-])cc1 (centres undefined)", "> 100 µM (inactive)"],
  ["NC(=O)NCCCC(NC(=O)OCCCCCCn1ccc(=O)[nH]c1=O)C(=O)O (centres undefined)", "> 100 µM (inactive)"],
  ["CP(=O)(CCSc1ccccc1)c1ccccc1 (centres undefined)", "> 100 µM (inactive)"],
  ["C=C1[C@@H]([C@@]2(C)C=CC(=O)C(C)(C)[C@@H]2CC(=O)OC)CC[C@@]2(C)[C@H](c3ccoc3)OC(=O)[C@H]3O[C@]132", "> 100 µM (inactive)"],
  ["Cc1cc(C)nc(NS(=O)(=O)c2ccc(NC(=O)c3cccc4c(Nc5ccc(S(N)(=O)=O)cc5)c5ccccc5nc34)cc2)n1", "28.1 µM (inactive)"],
  ["C#CC(O)Cc1ccc(OC)c2occc12 (centres undefined)", "> 100 µM (inactive)"],
  ["O=C1/C(=C\\c2ccc([N+](=O)[O-])cc2)Sc2scc(-c3ccc(O)c(O)c3)[n+]21", "6.87 µM (inactive)"]
]}

---

Tested on: NCI-H460
Experiment: NCI tumour cell line growth inhibition, 48 h
Active and inactive are the calls of the source. Rule as the data show it: active = GI50 up to about 1.1 µM and inactive = higher. Non-standard residues stand in square brackets, D forms with d. Residues, ends and D or L forms follow the SMILES beside them. *: point of attachment. Ac5c = NC1(C(=O)O)CCCC1; Boc = CC(C)(C)OC(=O)*; tBu = CC(C)(C)*

{"columns": ["COMPOUND", "TARGET_DESC", "GI50"],
 "data": [
  ["COC(=O)[C@@H]1CN(C(=O)CCc2ccccc2)C(=O)N1C(=O)OCc1ccccc1", "NCI-H460", "59.4 µM (inactive)"],
  ["Cc1cc(C)nc(NS(=O)(=O)c2ccc(NC(=O)c3cccc4c(Nc5ccc(S(N)(=O)=O)cc5)c5ccccc5nc34)cc2)n1", "NCI-H460", "44.1 µM (inactive)"],
  ["CCOC(=O)C1C(=O)CC(O)(c2ccccc2)C(C(=O)OCC)C1c1ccc(OC)cc1 (stereo unspecified)", "NCI-H460", "18.2 µM (inactive)"],
  ["NC(=S)/N=C(/c1nc2ccc(Cl)cc2nc1O)C(O)c1ccccc1Cl (stereo unspecified)", "NCI-H460", "> 100 µM (inactive)"],
  ["O=c1oc2ccc3ccccc3c2cc1-c1nnc(Nc2ccccc2)s1", "NCI-H460", "18.7 µM (inactive)"],
  ["COc1ccc(NCC(=O)Nn2c(C)nc3ccc(S(=O)(=O)Nc4ccc(OC)cc4)cc3c2=O)cc1", "NCI-H460", "> 100 µM (inactive)"],
  ["CC(=O)OC(OC(C)=O)c1ccc2ccc3cccc4ccc1c2c34", "NCI-H460", "21.4 µM (inactive)"],
  ["CCCCCCCC1(c2ccc(N)cc2)CCC(=O)NC1=O (stereo unspecified)", "NCI-H460", "26.7 µM (inactive)"],
  ["Cc1cc(O)c2c(c1O)C(=O)c1c(O)ccc(O)c1C2=O", "NCI-H460", "> 100 µM (inactive)"],
  ["COc1ccc(N2C(=O)C3c4[nH]c5ccccc5c4C4CCC(C(C)C)CC4C3C2=O)cc1 (stereo unspecified)", "NCI-H460", "> 100 µM (inactive)"],
  ["COC(=O)/C=C1\\CCC2[C@@H](C(=O)CC3[C@]2(C)CCC[C@@]3(C)C(=O)OC)C1C (stereo partly specified)", "NCI-H460", "15.7 µM (inactive)"],
  ["N=c1c2c(ncn1N)Oc1c(c(-c3ccccc3)nn1-c1ccccc1)C2c1ccc(Cl)cc1 (stereo unspecified)", "NCI-H460", "1.42 µM (inactive)"],
  ["C=C(C)C1CC2=C(C(=O)OC)C=C(O2)C(C(=C)C)[C@@H]2OC(=O)/C(=C\\C1O)[C@H]2N(C)C (stereo partly specified)", "NCI-H460", "15.2 µM (inactive)"],
  ["C=C1CCC2CC1[C@@H](C(=O)c1c[nH]c3ccccc13)NC2(C)C (stereo partly specified)", "NCI-H460", "> 37.5 µM (inactive)"],
  ["Cc1nnc(N)nc1C/C=C/C(Sc1ccc(Cl)cc1)c1ccccc1 (stereo unspecified)", "NCI-H460", "3.41 µM (inactive)"],
  ["CC(=O)OCCOCNC(=S)N/N=C(\\C)c1cnc2ccccc2n1", "NCI-H460", "27 µM (inactive)"],
  ["CC(=O)O[C@H](C[C@@H](C)[C@H]1C(=O)[C@H](O)[C@@]2(C)C3CC[C@H]4C(C)(C)[C@@H](OC5OCC(O)C(O)C5O)CC[C@@]45C[C@@]35CC[C@]12C)[C@@H]1OC1(C)C (stereo partly specified)", "NCI-H460", "16.9 µM (inactive)"],
  ["O=C(O)Cc1cccc2c1OC(c1ccccc1)C(Cl)(C(=O)c1ccccc1)C2=O (stereo unspecified)", "NCI-H460", "19.9 µM (inactive)"],
  ["COc1ccc(-c2cc(O)c3cc(OC)c(OC)cc3n2)cc1OC", "NCI-H460", "> 100 µM (inactive)"],
  ["COC(=O)[C@H](Cc1ccccc1)NC(=O)/C(=C/C(C)C)NC(=O)[C@H](CCSC)NC=O", "NCI-H460", "> 100 µM (inactive)"],
  ["CC12CCC(C(=O)N3CC=CCC3)(OC1=O)C2(C)C (stereo unspecified)", "NCI-H460", "> 100 µM (inactive)"],
  ["CC(OC(C)(C)C)C1NC(=O)C(CCCCNC(=O)OC(C)(C)C)NC(=O)C(Cc2c[nH]c3ccccc23)NC(=O)C(Cc2ccccc2)NC(=O)C2(CCCC2)NC(=O)C(Cc2ccccc2)NC1=O (stereo unspecified) (cyclo([Ac5c]FWK(Boc)T(tBu)F); configuration not given here)", "NCI-H460", "36.7 µM (inactive)"],
  ["O=C1c2ccccc2CCCCCCCCCCC12OCCCO2", "NCI-H460", "26.4 µM (inactive)"],
  ["CSC(Cc1ccc2c(c1)Sc1ccccc1O2)=[N+]1CCOCC1", "NCI-H460", "48.2 µM (inactive)"],
  ["Cc1ccc(S(=O)(=O)N/N=C/C(=C/c2ccc(Cl)cc2)CC(/C=N/NS(=O)(=O)c2ccc(C)cc2)=C\\c2ccc(Cl)cc2)cc1", "NCI-H460", "5.52 µM (inactive)"],
  ["CC(=O)OCC(=O)[C@@]1(O)CC[C@H]2[C@@H]3CCC4=CC(=O)[C@H](C)C[C@]4(C)[C@H]3[C@@H](O)C[C@@]21C", "NCI-H460", "> 100 µM (inactive)"]
]}
